Test system: MS2 coat protein
experiment: apparent KD of MS2 coat protein; designed switch direction (-1 OFF switch, 1 ON switch): -1; higher = weaker reporter binding
condition-summary: input ligand: FMN 200 uM
Would you mind telling me the reported apparent KD of MS2 coat protein of each entry?
Give bare numbers, in nM.

UUGUGAGGUGUAGGAUAUUGUUGUUGUUUUUAGCGAGAAGGACAUGAGGAUCACCCAUGUGUCGUGUUUUUUUUUUUUUUUUUU [simply blue] (Eterna round: R96, puzzle: Exclusion NG 1)	78.9
UUUAACAAGCCAGAUCCUCACAUGAGGAUCACCCAUGUGCUCGUCUGAUUUUGUACUAUCAUGUGAGUGAUAGUGUU [Level Boss var2-06] (Eterna round: R96, puzzle: Sensor v3, turn-off variant 1)	200
AAGUCGAGCGUGAGGAUAUCGUCCGAACGACCGAACGAGAAGGCACAUGAGGAUCACCCAUGUGAUUCAGCUCA [Brourd's EX4 #48] (Eterna round: R97, puzzle: Brourd's mod of Exclusion 4)	16.8
ACGAGCUUUUUGCUCGUUUACAUGAGGAUCACCCAUGUGUCUUCGCGCCCGGGCCCGGGCGGGCCCGGGCCCGGGCG [-52.9, -56.9, A 10%] (Eterna round: R97, puzzle: Sensor, turn-off variant 1)	50.6
AGCUGUGGCCGAGGAUAUCUAAACCUCAAAACCGAGGUAUACUCGGACAUGAGGAUCACCCAUGUAGAGAAGGCGGUCUCAGCA [Eli eng2 - 036] (Eterna round: R96, puzzle: Exclusion NG 2)	107
GUCAGCUCGUGAGGAUAUACAUGAGGAUCACCCAUGUGGUCAAUAGCAGCUUCGGCUGCAUACAUGUAGAAGGCACGAGCUGAC [ENG2/7-A1] (Eterna round: R96, puzzle: Exclusion NG 2)	59.7
UUUUACAUGCUGAGAUCCUACAUGAGGAUCACCCAUGUGGUCCGGUGACGUGAGUCACCGGACUUAGCUCGUCUUGU [salish99_S_TOV1_R5_099] (Eterna round: R97, puzzle: Sensor, turn-off variant 1)	186
GACACCAAAGGAUAUACAUGAGGAUCACCCAUGUGCUGCAAAAGCUGAGCUCAAAUGUGUAGAAGGUUGAAAUA [Eternabot (Original) Solution 40] (Eterna round: R97, puzzle: Exclusion 3)	39
UUGUUAUAUGUAGGAUAUGCGUAUUAUUAUUAUGCAGAAGGACAUGAGGAUCACCCAUGUGUAUUAUUAUUAUAUAUUAUAUAU [Title] (Eterna round: R96, puzzle: Exclusion NG 1)	41.3
GGUGAGCUAGGAUAUGCUUUGGGAACGCAUUCCUUCGAUAAACUUGAGGAUCACCCAAGUAGAAGGAGCUUGCC [salish99_ex2_r4_029] (Eterna round: R97, puzzle: Exclusion 2)	158

Hi there! I need apparent KD of MS2 coat protein for each item below, if you can.
1. UCCUCACAUGAGGAUCACCCAUGUGAGGAUAUCAUGCUUCGUAGUAAACUACGAAGUGUGAGAAGGCGCAUGGC [Omei Ex1 D16] (Eterna round: R97, puzzle: Exclusion 1)
2. AACUAGUCAGGAUAUACAUGAGGAUCACCCAUGUAAACUUUUAGUUUAAUUUGAAUGUGUAGAAGGGACAUAAA [Ex3 #43] (Eterna round: R97, puzzle: Exclusion 3)
3. GCCGGCUAUGUAGGAUAUGGGCCUGAUACGGGUCUAGAAGGACAUGAGGAUCACCCAUGUAUCGUGCGCUGGUGGCUUGCCGGU [-30, -30 kcal and 19% A] (Eterna round: R96, puzzle: Exclusion NG 1)
4. UGACUUCAUAUCACAUGAGGAUCACCCAUGUUAUUCAUCUCGUAGGAUAUCGAGGUUUAUUAUUUCGAGAAGGACGUAUUGUUU [JR_ExcNG3_Sub075] (Eterna round: R96, puzzle: Exclusion NG 3)
5. CUGGACAGAGGAUAUUGUGCUGCUGACAUGAGGAUCACCCAUGUAUGUUAACUCGGCCGUCGAGAAGGCUGACAGG [BotMod 17 - Jieux - Exclusion 5] (Eterna round: R97, puzzle: Exclusion 5)
6. UCUUACUGAGGAUAUACAUAGAUUUACAUGAGGAUCACCCAUGUUCCUCUAAGUAUAUAUGUAGAAGGCAGAAGAU [Mat - Exclusion 5 - JL Mod - D44] (Eterna round: R97, puzzle: Exclusion 5)

Reply:
1. 20.4
2. 20.7
3. 389
4. 68.6
5. 14.3
6. 329

Hi there! I need apparent KD of MS2 coat protein for each item below, if you can.
1. GUUUCGAGACGGAGAUCCGACAUGAGGAUCACCCAUGUCUCGUAAGCUUUUUGCUCGUCUUAUACUCCUCUGUUCUC [Elimod 49 - Jieux - Sensor, turn-off variant 1] (Eterna round: R97, puzzle: Sensor, turn-off variant 1)
2. CUAACAUGCUGGUGAUCAUACAUGAGGAUCACCCAUGUAACAAGCUUUUUGUUCGUCUUAAUUUAAUUGAUUACUAG [Stov1/8-B3] (Eterna round: R97, puzzle: Sensor, turn-off variant 1)

Reply:
[26, 177]

----------
Tested on: K4 kissing-loop RNA reporter;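 note: bound reporter read as fluorescence of individual clusters on recovered sequencing chips by microscopy, with normalized cluster intensities fitted with a binding model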
experiment: apparent KD of K4 kissing-loop reporter; higher = weaker reporter binding
condition-summary: Eterna round: R107; input ligand: FMN 200 uM
Rule: apparent KD of K4 kissing-loop reporter under 200 nM gives 0.0, otherwise 1.0.

Reference set (6 entries):
GUAUUGUGAAUGGAUACCAGACACCCGAGUGAUGUUCGGAGCAGAGUGAUGUUCUAAUAAGUCCCUUGGCAGCCGGAAGCAGCCG [Same State Theophylline B GF 3]	1.0
AGAACUGUCUGAGAUACCAGCUAAGGAGUGAUGUUCCUAGGUCCACGAAAGUGGACCCAUAGCCCUUGGCAGCUCAGACAGUUCA [#23 K4 Theophylline B Same State]	1.0
UGUGUACCGGGAAGGAGCGUGAAUGAUAAUGGAUAUAGUGAUGUUAUAUAUACGAACGAAUCGCAGGUAGGUCGCCCGGAUCCCU [SSArgB.X]	1.0
UCCUAGGACUUCAGGCGAAAGCCCUGCGAAGGAGCGUGCGAAAGCACAGGUAGGUCGCGCAGUGAUGUUGCACCUAGGUAAUAAA [#SwitchBubble 20 #K4Late]	1.0
UCGAAGGAUGGAAGGAGCGCUCGUCAGUCCUGCGAGUGAUGUUCGUGGGUAAAUAUUCGCGAGCAGGUAGGUCGCCAUCUUGAGA [Laatla]	0.0
CGUUUAUAGCAGGAUACCAGUACCCAUAAAGUACGUUAAUAGUAGAGUGAUGUUCUAAAGUACCCUUGGCAGCUUCCCGUGACUG [ExTheophylB.U]	0.0

Task item: Entry UCCUUUUUUGCCAGUGAUGUUGGACAGGAAGGAGCGGGCAUAAGCCCAGGUAGGUCGCCUGUCAACUUUCUUAUAGCCCUAAGGU [Edveza] : is its apparent KD of K4 kissing-loop reporter no less than 200 nM?
Reply: 1.0

Task item: Entry UGGAGUUGACGAAAAGUCAACUCCAGAGAAGGAGCGGACGAAAGUCCAGGUAGGUCGCUCACUACCAGUGAUGUUGGUACUUAAA : is its apparent KD of K4 kissing-loop reporter no less than 200 nM?
Reply: 0.0

Task item: Entry UAACUGCAGUGAUGUUGCAGAUGUCCUGACUAGGAUAUCAGGAAACUGAGAAGGAGUCCCUUCUACACUGCAGAGAAGGAGGACA [[K1]-[K2]-[F1]'-[F1]-[F2]-[F2]'-[K]'-[F]''_Design1] : is its apparent KD of K4 kissing-loop reporter no less than 200 nM?
Reply: 1.0

Task item: Entry AGAACUGUCUGGGAUACCAGCCGAGGAGUGAUGUUCCGGCUCGACGAAACGUCGAGCUACGGCCCUUGGCAGCUCAGACAGUUCA [#22 K4 Theophylline B Same State] : is its apparent KD of K4 kissing-loop reporter no less than 200 nM?
Reply: 1.0

Task item: Entry UGGGAUGUUAAAGGAUAUAGCAGGUGAUAUAAGAAAGUGAGUGAUGUUUAUGUAGAUGAUGAUAUGUUAGAAGGUUAACAAAACG [abcdefghi] : is its apparent KD of K4 kissing-loop reporter no less than 200 nM?
Reply: 1.0

----------
Test system: MS2 coat protein
experiment: apparent KD of MS2 coat protein, switch OFF state (with FMN for OFF switches, without FMN for ON switches); designed switch direction (-1 OFF switch, 1 ON switch): -1; higher = weaker reporter binding
condition-summary: FMN input: 0 or 200 uM; Eterna round: R93 (includes R88 designs)
quantity-kind: apparent KD of MS2 coat protein (nM)
Answers are plain numbers, in nM.

Hi there! I need apparent KD of MS2 coat protein for each item below, if you can.
1. AAAAAGUCAGGAUAUAUGCGAAAAAUAAAAAAAAUAAAAGCAUAGAAGGGACAUGAGGAUCACCCAUGUUAAAA [Ex 4 May 16]
2. CUCAUGUUAGGAUAUAAAUGAAAUGAAGUGAAAGAAAAGAAUUAGAAGGAACAUGAGGAUCACCCAUGUUAGAA [EteRNA is fun!]
3. AACAGUACAGGAUAUACAUGAGGAUCACCCAUGUAAAAAUAAAAGGGCGUACCACAAAGUAGAAGGGUACUGGA [Moding Maslow revisited (73) 12]

Reply:
1: 26.6; 2: 37.6; 3: 34
